- System: GB4
- PROTOCOL DETAILS: qHTS profiling for inhibitors of Plasmodium falciparum proliferation (AID 504749); further: nearly all actives have a fitted effect of over 60% in size
- CONDITION INFO: P. falciparum in erythrocytes, SYBR Green DNA, 72 h; series mostly up to 28.7 µM
Inconclusive results are not listed. Calls of active or inactive are those of the source. The call rests on the fitted dose curve; in most records, active means well fitted inhibition curve with a large enough effect; inconclusive means small, poorly fitted or top-dose-only effect; inactive means flat fitted curve, though single readings scatter.
The reply should name one outcome from YES = active, NO = inactive

# outcome recorded in this test, key = `NC(N)=N/N=C/c1c(Cl)cccc1Cl`
YES

Cool, now `CCOC(=O)c1cnc2c(cnn2CC)c1NN=C(C)C`
NO

Cool, now `CC(=O)Oc1cc(C(C)C)c(OCCN(C)C)cc1C`
NO

Cool, now `CCCCNc1c(C(=O)OCC)c(C)nc2c1cnn2CC`
NO

Cool, now `CC(=O)OCC1=C(C(=O)O)N2C(=O)[C@@H](NC(=O)Cc3cccs3)[C@H]2SC1`
NO

Cool, now `NCCCNCCSP(=O)(O)O`
NO

Cool, now CCN(Cc1ccncc1)C(=O)C(CO)c1ccccc1 (configuration not stated)
NO

----------
- System: CP250
- PROTOCOL DETAILS: qHTS profiling for inhibitors of Plasmodium falciparum proliferation (AID 504749); further: nearly all actives have a fitted effect of over 60% in size; further: potency means the concentration at half of the fitted maximal effect
- CONDITION INFO: P. falciparum in erythrocytes, SYBR Green DNA, 72 h; series mostly up to 28.7 µM
Records with an inconclusive call do not appear. Activity calls are given as the source filed them. Calls follow the shape of the dose curve; as a rule, active = well fitted inhibition curve with a large enough effect; inconclusive = small, poorly fitted or top-dose-only effect; inactive = flat fitted curve, though single readings scatter.
MEASURED QUANTITY: Potency

- CC[N+](C)(C)c1cccc(O)c1: inactive
- CCOC(=O)c1cnc2c(cnn2CC)c1NN=C(C)C: inactive
- O=C(O)CN(CCOCCOCCN(CC(=O)O)CC(=O)O)CC(=O)O: inactive
- COc1cc2c(cc1OC)-c1cc(=Nc3c(C)cc(C)cc3C)n(C)c(=O)n1CC2: 3.55 µM (active)
- CN(C)C(=O)Oc1cccc([N+](C)(C)C)c1: inactive
- CCCCCN(CCCCC)C(=O)C(CCC(=O)O)NC(=O)c1ccc(Cl)c(Cl)c1 (stereo unspecified): inactive
- CCCCOCCOCCOCc1cc2c(cc1CCC)OCO2: inactive
- CC(C)(Oc1ccc(CCNC(=O)c2ccc(Cl)cc2)cc1)C(=O)O: inactive

Any idea what its Potency is? The molecule is `C[N+](C)(C)CCCCCCCCCC[N+](C)(C)C`
7.08 µM (active)

Cool, now `CN(C)CCOC(=O)COc1ccc(Cl)cc1`
inactive

Cool, now `CC(=O)[C@]1(O)Cc2c(O)c3c(c(O)c2[C@@H](O[C@H]2C[C@H](N)[C@H](O)[C@H](C)O2)C1)C(=O)c1ccccc1C3=O`
6.31 µM (active)

----------
Kindly supply the reported Potency values for the records listed here.
- PROTOCOL DETAILS: Cell Viability - HepG2 (AID 433);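 further: potency means the concentration at half of the fitted maximal effect; cells exposed to compound for 40 hours; potency for ATP loss meaning cytotoxicity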
- CONDITION INFO: qHTS
Inconclusive results are not listed. Calls of active or inactive are those of the source. The call rests on the fitted dose curve.

Any idea what its Potency is? The compound is `COc1ccc(CN(CCN(C)C)c2ccccn2)cc1`
> 92 µM (inactive)

Cool, now `CN=C(NC#N)NCCSCc1nc[nH]c1C`
> 92 µM (inactive)

Cool, now `O=c1[nH]c(=O)n([C@H]2C[C@H](O)[C@@H](CO)O2)cc1Br`
> 92 µM (inactive)

Cool, now `CCCCOCCOCCOCc1cc2c(cc1CCC)OCO2`
> 92 µM (inactive)

Cool, now `COc1cc(Cc2cnc(N)nc2N)cc(OC)c1OC`
> 92 µM (inactive)

Cool, now `NC(=O)N1c2ccccc2C=Cc2ccccc21`
> 92 µM (inactive)

----------
Kindly supply the reported viability change values for the records listed here.
- PROTOCOL DETAILS: Nrf2 qHTS screen for inhibitors: Validation (AID 493153)
- CONDITION INFO: A549 ARE-Fluc reporter, 18-24 h; measured here: cytotoxicity max response
Inconclusive results are not listed.
# value in %; strip the unit string

Any idea what its viability change is? The compound is `NC(=O)N1c2ccccc2C=Cc2ccccc21`
-0.0645

Cool, now `CCCOc1ccccc1-c1nc2n[nH]nc2c(=O)[nH]1`
-11.3

Cool, now `O=c1[nH]c(=O)n([C@H]2C[C@H](O)[C@@H](CO)O2)cc1Br`
1.73

Cool, now `Cc1scc2c1N(C(=O)CN1CCN(C)CC1)c1ccccc1NC2=O`
3.95

Cool, now `c1cc(CN2CCCCC2)cc(OCCCNc2nc3ccccc3s2)c1`
-17

Cool, now `C#CCN(C)CCCOc1ccc(Cl)cc1Cl`
-1.92

Cool, now `CC(=O)Nc1nnc(S(N)(=O)=O)s1`
3.35

Cool, now CC(C)COCC(CN(Cc1ccccc1)c1ccccc1)N1CCCC1 (configuration not stated)
2.97

Cool, now CC(C(=O)O)c1ccc(CC2CCCC2=O)cc1 (configuration not stated)
-13.4

Cool, now `CN(C)CCCN1c2ccccc2Sc2ccccc21`
1.11

Cool, now `C[N+](C)(C)CCCCCCCCCC[N+](C)(C)C`
-2.44

Cool, now `CCN(CC)CC(=O)Nc1c(C)cccc1C`
-7.11

----------
- PROTOCOL DETAILS: qHTS to identify inhibitors of the type 1 interferon - major histocompatibility complex class I in skeletal muscle: primary screen against the NCATS Pharmaceutical Collection (AID 1347407);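 further: luminescence of HiBiT knocked into endogenous HLA-B as interferon-induced MHC class I level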
- CONDITION INFO: human skeletal muscle cells, IFN-b-induced MHC-I HiBiT luminescence, 24 h; series mostly up to 45.9 µM
Results filed as inconclusive are left out. Active and inactive are the calls of the source. The call rests on the fitted dose curve; in most records, active means well fitted inhibition curve with a large enough effect; inconclusive means small, poorly fitted or top-dose-only effect; inactive means flat fitted curve, though single readings scatter.
The reply should name one outcome from class 1 (active), class 0 (inactive)

# outcome recorded in this test, key = `CC1=NS(=O)(=O)c2cc(Cl)ccc2N1`
class 0

Cool, now `CCn1nc(C(=O)O)c(=O)c2cc3c(cc21)OCO3`
class 0

Cool, now `CCO/C([O-])=N/c1c[n+](N2CCOCC2)no1`
class 0

Cool, now `CN1C[C@H](C(=O)N[C@]2(C)O[C@@]3(O)[C@@H]4CCCN4C(=O)[C@H](Cc4ccccc4)N3C2=O)C[C@@H]2c3cccc4[nH]cc(c34)C[C@H]21`
class 0

Cool, now `CC(=O)Oc1cc(C(C)C)c(OCCN(C)C)cc1C`
class 0

Cool, now CCCNC(C)C(=O)Nc1ccccc1C (configuration not stated)
class 0

Cool, now `CCCC(C(=O)OCCN(CC)CC)(c1ccccc1)c1ccccc1`
class 0

Cool, now `CC(=O)Nc1nnc(S(N)(=O)=O)s1`
class 0

Cool, now `Cc1ccc(Cl)c(Nc2ccccc2C(=O)O)c1Cl`
class 0

Cool, now `CN(C)C(=O)Oc1cccc([N+](C)(C)C)c1`
class 0

Cool, now `OCCN1CCN(CCCN2c3ccccc3C=Cc3ccccc32)CC1`
class 0

Cool, now `FC(F)(F)c1ccccc1-n1ccnc1`
class 0

Cool, now `CC(=O)[C@]1(O)Cc2c(O)c3c(c(O)c2[C@@H](O[C@H]2C[C@H](N)[C@H](O)[C@H](C)O2)C1)C(=O)c1ccccc1C3=O`
class 1

Cool, now `C[C@]12CCC(=O)C=C1CC[C@@H]1[C@@H]2CC[C@@]2(C)[C@H]1CC[C@]2(O)C(=O)CO`
class 0

Cool, now `O=C1NCN(c2ccccc2)C12CCN(CCCC(c1ccc(F)cc1)c1ccc(F)cc1)CC2`
class 1

Cool, now COCCOC(=O)C1=C(C)NC(C)=C(C(=O)OC(C)C)C1c1cccc([N+](=O)[O-])c1 (configuration not stated)
class 0

Cool, now Nc1c2c(nc3ccccc13)CCCC2O (configuration not stated)
class 0

Cool, now `CCCCOCCOCCOCc1cc2c(cc1CCC)OCO2`
class 0

Cool, now `Fc1ccc(C(c2ccc(F)cc2)N2CCN(C/C=C/c3ccccc3)CC2)cc1`
class 0

Cool, now `Brc1c(NC2=NCCN2)ccc2nccnc12`
class 0

Cool, now `Cc1nc2sccn2c(=O)c1CCN1CCC(=C(c2ccc(F)cc2)c2ccc(F)cc2)CC1`
class 0

Cool, now `CCN1CCC[C@H]1CNC(=O)c1c(O)c(Cl)cc(Cl)c1OC`
class 0

----------
- System: CP247
- PROTOCOL DETAILS: qHTS profiling for inhibitors of Plasmodium falciparum proliferation (AID 504749); further: nearly all actives have a fitted effect of over 60% in size
- CONDITION INFO: P. falciparum in erythrocytes, SYBR Green DNA, 72 h; series mostly up to 28.7 µM
Records with an inconclusive call do not appear. Activity calls are given as the source filed them. Calls follow the shape of the dose curve; as a rule, active = well fitted inhibition curve with a large enough effect; inconclusive = small, poorly fitted or top-dose-only effect; inactive = flat fitted curve, though single readings scatter.
The reply should name one outcome from active, inactive

# outcome recorded in this test, key = `COc1cc(C(=O)OCCCN2CCCN(CCCOC(=O)c3cc(OC)c(OC)c(OC)c3)CC2)cc(OC)c1OC`
active

Cool, now `C[N+](C)(C)CCOC(N)=O`
inactive

Cool, now `COc1cc2c(cc1OC)-c1cc(=Nc3c(C)cc(C)cc3C)n(C)c(=O)n1CC2`
active

Cool, now `CCN(CC)CC(=O)Nc1c(C)cccc1C`
inactive

Cool, now `NC(=O)c1ncn([C@@H]2O[C@H](CO)[C@@H](O)[C@H]2O)c1O`
inactive

Cool, now CC(N=C(NC#N)Nc1ccncc1)C(C)(C)C (configuration not stated)
inactive

Cool, now `C[N+](C)(C)CCCCCCCCCC[N+](C)(C)C`
active

Cool, now `OCCN1CCN(CCCN2c3ccccc3C=Cc3ccccc32)CC1`
active

Cool, now `OCCN1CCN(CC/C=C2/c3ccccc3Sc3ccc(C(F)(F)F)cc32)CC1`
active

Cool, now `NC/C=C/C(=O)O`
inactive

Cool, now `CCN1CCc2nc(N)oc2CC1`
inactive

Cool, now `CN(C)C/C=C(/c1ccc(Br)cc1)c1cccnc1`
inactive

Cool, now `CCCCNC(=O)NS(=O)(=O)c1ccc(C)cc1`
inactive

Cool, now `CCCCNc1c(C(=O)OCC)c(C)nc2c1cnn2CC`
inactive

Cool, now CC(C)COCC(CN(Cc1ccccc1)c1ccccc1)N1CCCC1 (configuration not stated)
inactive

Cool, now CNC1(C)C2CCC(C2)C1(C)C (configuration not stated)
inactive

Cool, now `CCN1CCC[C@H]1CNC(=O)c1c(O)c(Cl)cc(Cl)c1OC`
inactive

Cool, now `O=C(O)CN(CCOCCOCCN(CC(=O)O)CC(=O)O)CC(=O)O`
inactive

Cool, now `C[C@]12CCC(=O)C=C1CC[C@@H]1[C@@H]2CC[C@@]2(C)[C@H]1CC[C@]2(O)C(=O)CO`
inactive

Cool, now `O=C(O)CN(CCN(CC(=O)O)CC(=O)O)CCN(CC(=O)O)CC(=O)O`
inactive

Cool, now `Cc1nc2c([nH]1)c(=O)n(C)c(=O)n2Cc1ccco1`
inactive

Cool, now `CCCCOCCOCCOCc1cc2c(cc1CCC)OCO2`
inactive
